Test: Phase 1 clinical trial, Part II, muscle biopsy: concentration in quadriceps muscle
Assay type: in vivo, human (healthy male volunteers)
Conditions: male, human, quadriceps muscle / plasma, oral; 240 mg once daily, muscle Day 13 / plasma Day 14 at 3 hours post dose, geom. mean (geom. % CV); read-out: Kpu (unbound muscle concentration divided by plasma concentration)
Metric: Kp
Write the number on its own, no unit after it.

For the compound `COc1ccc2c(c1)CN(Cc1ccc(C(=O)O)cc1)CCS2.O=C(O)/C=C/C(=O)O` , what Kp is on record?
0.0081

* * *

Assay: Phase 1b study in RYR1-Related Myopathy patients, plasma pharmacokinetics
Assay type: in vivo, human (RYR1-Related Myopathy patients)
Details: human, plasma, po, 200 mg, 200 mg oral daily for 28 days; read-out: Tmax, all participants
Metric: Tmax

For the molecule `COc1ccc2c(c1)CN(Cc1ccc(C(=O)O)cc1)CCS2.O=C(O)/C=C/C(=O)O` , what Tmax is on record?
5 to 6 h
